experiment: label from the status in PepcDB records
attribute_measured: protein production

# seq_text, attribute_measured, val
rows = [
    ("MSRDEVLTRMRRFGPLAVVAVLCAAAFASGLVEHISLEELRLRGTQLQAFAHENPLLCAAIYLAVYVGTVAISLPGALILSLTGGFLFGPIGGGLAAVTGATGGSTVTFLVFRTAFGEALPFKSSAFIARIAEGLKGDAFNYLLTLRLIPAFPLLAVNVAAGVMNVRVRTFLLASVLGMIPSSFVYAGIGAGLGHVFAKGGPVTVESLLSPRIYLPIIGMGVLAFLPPLWRHWRNGRDVASLDEK", "protein production", "failed"),
    ("MGKEITENIIDVEFKCNHFKMNGYIGNNNIYRSNKNLQHIYINKRFVKSKIIIDAITESYKSIIPIGKHAVCFLNIEVDPSCIDVNIHPNKLEIKFEKEQEVYIELRDFLKVKLIHSNLIGLEHHHHHH", "protein production", "failed"),
    ("VIVDSVGNVLSDGDTVSITKTIKVKGAQQPLKSGMKARNIRLKPEVGTGPEDHNIECKIDGFGQMILKPAVVKKIV", "protein production", "failed"),
    ("MSQSTHQSTDHKRQSQDKNQTHAYAKVWLYFMYYWMIFGIGCYFGQYLPMSWRKPLSLGLLILILATLFIKRARKYGLVISHIYAIIVGLLSYALFTTYLQNLGAEVFYKNIILAIGAFIAFGIIGYFLIKDASSMGKYLFVTLIALIIAGIIGIFINNPIFHTVITIVSLLLFLLYTLYDFNRMKRGQFSPREMGFNLFINLLNIIEDILSLANRFKN", "protein production", "failed"),
    ("MIKIVTDNFLYEKEKVLALRYMYDSAKKPGITIITVTNKQKYIKNIMDNFRRCLYPKKEFIIILNDTKLQTSLYKNYFSKTKNLKLFKVDSSYSLGECLNLAISKSNYNYIAKMDDDDYYGSHYILDSMNAFNYTDASIIGKATHFIYFEDRTLLNLWCQGNENTYATSVAGATFVMKKSIFNKVKFNSLNNGEDIDLLSQCNNLGIKIYSCSKFNYVYNRHASPDNHSWKISNDLLVKRSIKLCITKSYKRIVHILEHHHHHH", "protein production", "failed"),
    ("MAEKSQIPDNNNNTSSSAKKPTPEIGSGSGKRYYNPPESVNPDQATLREQWKFAIRQYSKWYSHAWGTAILAGGFFFGLGWIIKGSNPLPSLQSSSKPRDEEK", "protein production", "failed"),
    ("MPTTKQLKDTELPLNFFEHSSLETIELFIQHLTEAMILVNANGFIRSCNQRSAELLDCPQVSLKGQDWRNFLTEHHQARYDNLLSHDVQLGTNCGQPVQHPAQETTLICASGKAKDVELSISYIPGHEPMFVMVMHDLTHHKAELEHHHHHH", "protein production", "not failed"),
    ("MSIENLSSNKSFGGWHKQYSHVSNTLNCAMRFAIYLPPQASTGAKVPVLYWLSGLTCSDENFMQKAGAQRLAAELGIAIVAPDTSPRGEGVADDEGYDLGQGAGFYVNATQAPWNRHYQMYDYVVNELPELIESMFPVSDKRAIAGHSMGGHGALTIALRNPERYQSVSAFSPINNPVNCPWGQKAFTAYLGKDTDTWREYDASLLMRAAKQYVPALVDQGEADNFLAEQLKPEVLEAAASSNNYPLELRSHEGYDHSYYFIASFIEDHLRFHSNYLNA", "protein production", "not failed"),
    ("AIAAIAEKAKGKEWTSTEKSREEDQQASNQPNSIALPGTSAKRTKEKMSVKGSKVLCPKKKAEHTDNPRPQKKIPIPPLPSKLPPVNLIHRDILRAWCQQLKLSSKGQKLDAYKRLCAFAYPNQKDFPSTAKEAKIRKSLQKKLKVEKGETSLQSSETHPPEVALPPVGEPPALENSTALLEGVNTVVVTTSAPEALLASWARISARARTPEAVESPQEASGVRWCVVHGKSLPADTDGWVHLQFHAGQAWVPEKQEGRVSALFLLPASNFPPPHLEDNMLCPKCVHRNKVLIKSLQWE", "protein production", "failed"),
    ("MQAKSEAKLAIGVIGCGNISMTYLRNAALFGGIELRACADISADMAALRAKEYGIQALGVDALLSDPEIDLVLNLTIPAAHFDISLSALSAGKHVFTEKPLATSAGDGRRLVAEAAKRGVLLGSAPDTFLGAAGRRARRLMDEGAIGRPVTGTAFMMGRGMEHWHPNPQFYYQPGGGPVFDMGPYYLTMLVNLLGPVARVMAMATRGQEERLITAEGPFKNTTFKVGTPTNVLSLLEFRSGATVTFGASWDVFKHSNHPIELHGTEGSLRLPDPDTFGGTVSLSERGADWKDFAGEGELYGARNWPYAAPDRANYRMLGVADLVRSLKTGAVPRASGNLALHVLEIMEAILHSGETKSAVAIAGDVVQPALLTEDEANSLLA", "protein production", "failed"),
    ("MSKDGLSNDQVSSMKEAFMLFDTDGDGKIAPSELGILMRSLGGNPTESQLKSIITTENLSSPFDFNRFLDLMAKHLKTEPFDRQLRDAFKVLDKEGTGFVAVADLRHILTSIGEKLQPSEFDEWIKEVDVGSDGKIRYEDFIARMVAK", "protein production", "failed"),
    ("MDDWEDEKIAPLPAKVELKSNWDDEDVDENEIKDSWEDDDDEPAQPPVINPAPEKAPKKAAPKTVEKKGKAVEVPKEAPKEKPLDPIAEKLRQQRLVEEADYRATAELFGVKDDDKNLDMFIPKSESDFLEYAEMISHRIKPYEKSYHYIALLKTIMRLSLTNMKAADVKDVASSITTIANEKLKAEKEAAAGKKKGGKKKQLIVDKANDDLVAGPYDAMDDFDFM", "protein production", "failed"),
    ("MPPVPGVPFRNVDNDSPTSVELEDWVDAQHPTDEEEEEASSASSTLYLVFSPSSFSTSSSLILGGPEEEEVPSGVIPNLTESIPSSPPQGPPQGPSQSPLSSCCSSFSWSSFSEESSSQKGEDTGTCQGLPDSESSFTYTLDEKVAELVEFLLLKYEAEEPVTEAEMLMIVIKYKDYFPVILKRAREFMELLFGLALIEVGPDHFCVFANTVGLTDEGSDDEGMPENSLLIIILSVIFIKGNCASEEVIWEVLNAVGVYAGREHFVYGEPRELLTKVWVQGHYLEYREVPHSSPPYYEFLWGPRAHSESIKKKVLEFLAKLNNTVPSSFPSWYKDALKDVEERVQATIDTADDATVMASESLSVMSSNVSFSE", "protein production", "failed"),
]
